# EXPERIMENTAL CONDITIONS: buffer; pH 7.4; 200.0 µM
PARAMETER MEASURED: solubility kinetic

These recorded examples may help you get a feel for the data.
Documented solubility kinetic of COc1ccc(/C(N)=N/OC(=O)CCC2CCCC2)cc1OC : 8 µg/mL

So, O=c1c2cccnc2nc2n1CCCCC2 ? Its solubility kinetic was > 32.3 µg/mL

Lookup result for Cc1ccc2nc(C)c3c(c2c1)SCC3 ; measured solubility kinetic: 11.3 µg/mL

// input: 5 compounds below; output: solubility kinetic for each
1. CN(C(=O)c1ccc2c(c1)OCO2)C1CCCCC1
2. O=C(OCc1csc(-c2ccccc2)n1)c1ccccc1O
3. O=C(NC1CC1)c1ccc(-n2cccc2)cc1
4. COc1ccc(OCCC(=O)OCC(=O)NCc2ccc(F)cc2)cc1
5. NC(=O)c1ccccc1NC(=O)CCn1c(=S)oc2ccccc21

1. 38.4 µg/mL
2. < 0.7 µg/mL
3. 17.4 µg/mL
4. 33.5 µg/mL
5. 43.2 µg/mL

###

# EXPERIMENTAL CONDITIONS: buffer; pH 7.4; 200.0 µM
Exercise: state measured solubility kinetic for each of the compounds provided.
Numbers only, in µg/mL.

Answered examples (5):
Per the record, CCc1ccccc1NC(=O)CCN1C(=O)C2C3CCC(C3)C2C1=O (centres undefined) has solubility kinetic of 43

The reported value for CC(=O)c1cccc(NC(=O)C2=CN3CCS(=O)(=O)N=C3C=C2)c1 in terms of solubility kinetic is 48.1

Query COc1ccc(C(=O)NCc2ccc3c(c2)OCO3)cc1 yields solubility kinetic of 42.4

Per the records, this compound ( O=C(COC(=O)c1ccc(Br)o1)Nc1cccc(S(=O)(=O)N2CCOCC2)c1 ) has solubility kinetic equal to 59.2

solubility kinetic recorded for this compound, CC(C)(C)C(=O)Nc1ccc(C(=O)COC(=O)c2ccccn2)cc1 , is 50.2

The following compounds each have a reported value; give each one's solubility kinetic.
1. CC1CCCN(CC(=O)c2ccc(Cl)c(Cl)c2)C1 (centres undefined)
2. CCC1(C)Cc2c(sc3nc(SC)[nH]c(=S)c23)CO1 (centres undefined)
3. COc1cccc(C(=O)Nc2ccccc2OC(F)(F)F)c1

[26, 8.9, 30.6]

Here are 5 compounds. What values of solubility kinetic were reported for them?
1. Cc1ccc(S(=O)(=O)N(C)c2ccc(OC(=O)COc3ccccc3)cc2)cc1
2. Cc1cc2oc(=O)cc(CN3CCCCC3C)c2cc1C(C)C (centres undefined)
3. Cc1ccccc1C(=O)Nc1ccc(N(C)C)c2ccccc12
4. Cc1cc(C)c(S(=O)(=O)NCC(=O)NCc2ccco2)c(C)c1
5. Cc1nc(-c2ccc(Cl)cc2)sc1C(=O)O

1: 18.7; 2: 8.1; 3: 13.6; 4: 44.2; 5: 33.2

###

# EXPERIMENTAL CONDITIONS: buffer; pH 7.4; 200.0 µM
Threshold rule: solubility kinetic greater than or equal to 10 µg/mL is Y; below that, N.

Solved cases (5 shown):
Please check the record N=c1c2ccccc2nc2n1CCCCCCCCCCC2 and state if its solubility kinetic is at or above 10 µg/mL. Y

solubility kinetic >= 10 µg/mL for O=C(Nc1ccc(F)cc1)NC1CCCc2ccccc21 (configuration not stated) ? N

Could you verify whether the entry Cc1cccc(N=C2NC(=O)/C(=C/c3cccnc3)S2)c1 shows solubility kinetic of no less than 10 µg/mL? N

Hello, I need to know if O=C(Nc1ccon1)c1ccc(S(=O)(=O)N2CCOCC2)cc1 has measured solubility kinetic not below 10 µg/mL. Thanks! Y

Threshold query (solubility kinetic >= 10 µg/mL) on COc1cccc(-c2nc(-c3ccncc3)no2)c1 N

New cases:
solubility kinetic >= 10 µg/mL for Cc1cccc(OCCC(=O)Nc2ccc(Cl)cc2F)c1 ? N

Textbook exercise: given the entry COc1ccc(C(=O)N[C@H](C(=O)NCc2ccccc2)C(C)C)cc1 , state whether its solubility kinetic is greater than or equal to 10 µg/mL. N

Please indicate if the recorded solubility kinetic for CCc1ccccc1NC(=S)N(CCc1ccncc1)C(C)C meets or exceeds 10 µg/mL. Y

In plain terms: is recorded solubility kinetic at least 10 µg/mL for COc1cc(S(=O)(=O)NC2CCCC2)c(OC)cc1C ? Y

State whether the measured solubility kinetic reaches 10 µg/mL, counting equality as reaching it, for COc1ccc(Nc2ccc(C(N)=O)cc2[N+](=O)[O-])cc1 Y

Identify whether the reported solubility kinetic of the following molecule is 10 µg/mL or greater: COc1ccccc1NC(=O)C1CCN(C(=O)c2ccco2)CC1 Y

Say whether CN(C)CCn1c(=S)[nH]c2ncccc2c1=O shows solubility kinetic of 10 µg/mL or more. Y
